Test system: K-562
measurement protocol: SRB colorimetric cell growth inhibition assay, K-562
Type: cell-based
condition context: Homo sapiens, K562, K-562; cell killing (cytotoxic effect); read-out: LC50 K-562
Measured CC50 of individual entries
Enter your answer as a number in µM; do not include the unit.

{"columns": ["molecule", "assay result"],
 "data": [
  ["COc1cc(-c2c3c4cc(OC)c(OC(=O)[C@H](C)NC(=O)OC(C)(C)C)cc4oc(=O)c3n3ccc4c(OC(=O)[C@H](C)NC(=O)OC(C)(C)C)c(OC)c(OC)cc4c23)ccc1OC(=O)[C@H](C)NC(=O)OC(C)(C)C", 9.59]
]}

Item under review: COc1cc(-c2c3c4cc(OC)c(OC(C)C)cc4oc(=O)c3n3ccc4c(OC(C)C)c(OC)c(OC)c(COS(C)(=O)=O)c4c23)ccc1OC(C)C . Reported CC50?
5.73

What does the record list as CC50 for COc1cc(-c2c3n(c4c(=O)oc5cc(OC(=O)[C@H](C)NC(=O)[C@H](C)NC(=O)OC(C)(C)C)c(OC)cc5c24)CCc2cc(OC(=O)[C@H](C)NC(=O)[C@H](C)NC(=O)OC(C)(C)C)c(OC)cc2-3)ccc1OC(=O)[C@H](C)NC(=O)[C@H](C)NC(=O)OC(C)(C)C ?
8.14

* * *

System: PANC-1
measurement protocol: SRB colorimetric cell growth inhibition assay, PANC-1
Format: cell-based
condition context: PANC-1; cell killing (cytotoxic effect); read-out: LC50 PANC-1
assay readout: CC50 (µM)
The reply should contain only the number, in µM.

Consider the worked cases shown below.
{"columns": ["molecule", "assay result"],
 "data": [
  ["COc1cc2ccn3c(c(-c4ccc(OC(=O)[C@@H](N)Cc5ccccc5)c(OC)c4)c4c5cc(OC)c(OC(=O)[C@@H](N)Cc6ccccc6)cc5oc(=O)c43)c2cc1OC", 12.4],
  ["COc1cc(-c2c3n(c4c(=O)oc5cc(OS(C)(=O)=O)c(OC)cc5c24)CCc2cc(OS(C)(=O)=O)c(OC)cc2-3)ccc1OS(C)(=O)=O", 13.6],
  ["COc1cc2c(cc1O)oc(=O)c1c2c(-c2ccc(OC(=O)[C@H](C)N)c(OC)c2)c2c3cc(OC)c(O)cc3ccn21.Cl", 1.61]
]}

Note: attention shifts to another entry.
Recorded CC50 of COc1cc(-c2c3n(c4c(=O)oc5cc(OC(C)=O)c(OC)cc5c24)CCc2cc(OC)c(OC(C)=O)cc2-3)ccc1OC(C)=O , please.
15.9

* * *

System: LNCaP
measurement protocol: SRB colorimetric cell growth inhibition assay, LNCaP
Type: cell-based
condition context: Homo sapiens, LNCaP, LN-caP; cell killing (cytotoxic effect); read-out: LC50 LN-caP
Protocol: The finality of these assays is to interrupt the growth of an “in vitro” tumor cell culture by means a continued exhibition of the cells to the sample to be testing. A colorimetric type of assay, using sulforhodamine B (SRB) reaction has been adapted for a quantitative measurement of cell growth and viability (following the technique described by P. A. Skehan, et al., J. Natl. Cancer Inst. 1990, 82, 1107-1112). […] The values for mean +/− SD of data from triplicate wells are calculated. […]
assay readout: CC50 (nM)
Respond numerically; units are nM and should not be typed.

{"columns": ["molecule", "result units", "CC50"],
 "data": [
  ["COc1cc(-c2c3c4cc(OC)c(OC(=O)CCCCCN)cc4oc(=O)c3n3ccc4cc(OC(=O)CCCCCN)c(OC)cc4c23)ccc1OC(=O)CCCCCN", "nM", 1240],
  ["COc1cc(-c2c3c4cc(OC)c(OC(=O)[C@H](C)NC(=O)[C@H](C)N)cc4oc(=O)c3n3ccc4c(OC(=O)[C@H](C)NC(=O)[C@H](C)N)c(OC)c(OC)cc4c23)ccc1OC(=O)[C@H](C)NC(=O)[C@H](C)N", "nM", 3620],
  ["COc1cc(-c2c3n(c4c(=O)oc5cc(OC(=O)[C@H](Cc6c[nH]c7ccccc67)NC(=O)OC(C)(C)C)c(OC)cc5c24)CCc2cc(OC(=O)[C@H](Cc4c[nH]c5ccccc45)NC(=O)OC(C)(C)C)c(OC)cc2-3)ccc1OC(=O)[C@H](Cc1c[nH]c2ccccc12)NC(=O)OC(C)(C)C", "nM", 396],
  ["COc1cc(-c2c3c4cc(OC)c(OC(=O)[C@H](C)N)cc4oc(=O)c3n3ccc4cc(OC(=O)[C@H](C)N)c(OC)cc4c23)ccc1OC(=O)[C@H](C)N", "nM", 392],
  ["COc1cc(-c2c3c4cc(OC)c(OC(=O)[C@@H](N)Cc5ccccc5)cc4oc(=O)c3n3ccc4c(OC(=O)[C@@H](N)Cc5ccccc5)c(OC)c(OC)cc4c23)ccc1OC(=O)[C@@H](N)Cc1ccccc1", "nM", 3430]
]}

// below: CC50 requested for another compound
Recorded CC50 for COc1cc(-c2c3c4cc(OC)c(OC(=O)[C@@H]5CCCN5)cc4oc(=O)c3n3ccc4c(OC(=O)[C@@H]5CCCN5)c(OC)c(OC)cc4c23)ccc1OC(=O)[C@@H]1CCCN1 , please?
4900
